Test system: MDA-MB-231
experimental-protocol: NCI tumour cell line growth inhibition, 48 h
The source made the active and inactive calls. Rule as the data show it: active = GI50 up to about 1.1 µM and inactive = higher.
Here, each record is paired with measured GI50 data.

Below, 3 compounds whose answers are already recorded.
compound	GI50
O=[N+]([O-])C(=C/C1CCCCC1)/C(=C\C1CCCCC1)[N+](=O)[O-]	2.73 µM (inactive)
C=CCNC1=C2C[C@@H](C)C[C@@H](OC)C(OC(=O)CCCN(C)C)[C@H](C)/C=C(\C)[C@@H](OC(N)=O)[C@H](OC)/C=C\C=C(/C)C(=O)NC(=CC1=O)C2=O (some centres undefined)	5.45 µM (inactive)
Oc1c(C2=N[C@H]3CCCC[C@@H]3N2)ccc2ccccc12	> 100 µM (inactive)

# input for lookup
Form: item Nc1c(Cl)cc(-c2nc3ccccc3s2)cc1Cl ; test system MDA-MB-231; GI50: 69 µM (inactive)

----------
System: MCF7
experimental-protocol: NCI tumour cell line growth inhibition, 48 h
Active and inactive are the calls of the source. Cut-off read from the data, not from the text of the source: active = GI50 up to about 1.1 µM and inactive = higher.
Reported GI50 values follow for various compounds

Recorded GI50, per entry:
In [3]: df
Out[3]:
                                   compound             observed
0          N#Cc1c(O)cc(=O)n2c1[nH]c1ccccc12  > 100 µM (inactive)
1  COc1ccc(C(O)(c2ccccc2)c2nccc3ccccc23)cc1 (stereo not drawn)   4.32 µM (inactive)

Please find the next compound below.
Measured GI50 of O=C1CCCCC1C(O)(C(F)(F)F)C(F)(F)Cl (stereo not drawn) : > 10 µM (inactive)

----------
Tested on: SK-MEL-28
experimental-protocol: NCI tumour cell line growth inhibition, 48 h
Active and inactive are the calls of the source. Cut-off read from the data, not from the text of the source: active = GI50 up to about 1.1 µM and inactive = higher.
reported-endpoint: GI50

compound	experimental-target	observed
COC(=O)[C@H]1COC(=O)N1	SK-MEL-28	> 100 µM (inactive)
BrC(Br)([P+](c1ccccc1)(c1ccccc1)c1ccccc1)[P+](c1ccccc1)(c1ccccc1)c1ccccc1	SK-MEL-28	16.6 µM (inactive)
C=CCNC1=C2C[C@@H](C)C[C@@H](OC)C(OC(=O)CCCN(C)C)[C@H](C)/C=C(\C)[C@@H](OC(N)=O)[C@H](OC)/C=C\C=C(/C)C(=O)NC(=CC1=O)C2=O (stereo partly drawn)	SK-MEL-28	13.7 µM (inactive)
COC(=N)/C(=C1\OC(=N)C(c2ccc(Cl)cc2)=C1O)c1ccc(Cl)cc1	SK-MEL-28	> 100 µM (inactive)

Now for the compound whose GI50 we want.
For reference, reported GI50 for Cc1cc(Cl)cc2c1NC(=O)C2=O.O=C(c1ccccc1)C(F)(F)F stands at 93.1 µM (inactive)

----------
Test system: HCT-116
experimental-protocol: NCI tumour cell line growth inhibition, 48 h
Activity calls are given as the source filed them. Rule as the data show it: active = GI50 up to about 1.1 µM and inactive = higher.
Respond using exactly one of the listed classes: true (active), false (inactive)

compound	category-label
CC(C)C1=Cc2ccc3c(c2C(=O)C1=O)CCCC3(C)C [MILTIRONE]	false
CC(=O)OC1CCn2c1nc1cc([N+](=O)[O-])c(C)cc12 (stereo unspecified)	false
O=C(CC(=O)N1N=C(n2ccc3ccccc32)CC1c1ccccc1)Nc1cccc(Cl)c1 (stereo unspecified)	false

# input for lookup
Please state the recorded outcome for this compound: C[C@]12CCC(=O)C=C1CC[C@@H]1C2CC[C@]2(C)Nc3c(ncn3-c3ccc(F)cc3)CC12 (stereo partly specified)
false

----------
Test system: TK-10
experimental-protocol: NCI tumour cell line growth inhibition, 48 h
Active and inactive are the calls of the source. Cut-off read from the data, not from the text of the source: active = GI50 up to about 1.1 µM and inactive = higher.
reported-endpoint: GI50

Check out these entries, answers already filled in.
                                   molecule  experimental_target  reported_endpoint             observed
0         Nc1nc(O)c([I+]c2ccccc2)c(=O)[nH]1                TK-10               GI50  > 100 µM (inactive)
1  O=C(c1ccccc1)c1ccc2c(c1)NC(=O)c1ccccc1SSc1ccccc1C(=O)N2                TK-10               GI50  > 100 µM (inactive)
2  O=c1c2ncn(CCCl)c2n(-c2ccccc2)c(=S)n1-c1ccccc1                TK-10               GI50  > 100 µM (inactive)
3  CC1=C(C(=O)Nc2ccccc2C)C(c2ccc(Cl)cc2)C(C(=O)Nc2ccccc2C)=C(C)N1                TK-10               GI50  > 100 µM (inactive)
4  N#CCCN(c1ccc(/C=N/c2nc(-c3ccccc3)cs2)cc1)S(=O)(=O)c1ccccc1                TK-10               GI50   86.5 µM (inactive)
5  CC1(C)CCC(Sc2ccccc2)O1 (stereo unspecified)                TK-10               GI50  > 100 µM (inactive)
6         CSc1nc(Cl)c(Br)c(Nc2cnc(O)nc2O)n1                TK-10               GI50   14.7 µM (inactive)
7       CCCCNC(=S)N/C=C1\C(=O)Oc2ccccc2C1=O                TK-10               GI50  > 100 µM (inactive)

Looking up COc1ccc2oc(=O)c(-c3nc4ccccc4o3)cc2c1 , I see its GI50 listed as > 100 µM (inactive)

Just so you know, measured GI50 for C/C=C1\CN2CCc3c([nH]c4ccccc34)C2CC1CCO (stereo unspecified) came out at > 100 µM (inactive)

// recorded GI50 for C=C(C)C1CC=C(C)CC1 (stereo unspecified) : 1000 µM (inactive)

----------
Test system: OVCAR-8
experimental-protocol: NCI tumour cell line growth inhibition, 48 h
Activity calls are given as the source filed them. Rule as the data show it: active = GI50 up to about 1.1 µM and inactive = higher.
reported-endpoint: GI50

compound	experimental-target	GI50
COC(=O)c1cc(CC2Cc3cc4c(cc3C2)CCC4)cc2c1CCC2	OVCAR-8	> 100 µM (inactive)
Cc1c(N)nc([C@H](CC(N)=O)NC[C@H](N)C(N)=O)nc1C(=O)N[C@H](C(=O)N[C@H](C)[C@@H](O)[C@H](C)C(=O)N[C@H](C(=O)NCCc1nc(-c2nc(C(=O)NCCC[S+](C)C)cs2)cs1)[C@@H](C)O)C(OC1OC(CO)C(O)C(O)C1OC1OC(CO)C(O)C(OC(N)=O)C1O)c1c[nH]cn1 (stereo partly drawn)	OVCAR-8	3.26 µM (inactive)

Lab note: next compound to report on.
For reference, reported GI50 for CC[C@H](C)C1=C(OC(C)=O)[N@+]2([O-])Oc3ccc(-c4c(O)c(O)c(-c5ccc(OC(C)=O)cc5)c(OC(C)=O)c4OC(C)=O)cc3O[C@]2([C@@H](C)CC)C(=O)N1O stands at 18.4 µM (inactive)

----------
Test system: HT-29
experimental-protocol: NCI tumour cell line growth inhibition, 48 h
The source made the active and inactive calls. Rule as the data show it: active = GI50 up to about 1.1 µM and inactive = higher.
Reported values of GI50 for individual entries

Solved cases (4 shown):
>>> df
                                   compound             observed
0  CC(C)C1CCC(=O)CC1CCCCC1CC(=O)CC1O[Si](C)(C)C(C)(C)C (stereo not given)      3 µM (inactive)
1            CCCCCCCCCCCCCS(=O)(=O)NCC(N)=O  > 100 µM (inactive)
2  CC(C)=CCC/C(C)=C/CC/C(C)=C/CC/C=C(\C)CC/C=C(\C)CCC1SC1(C)C (stereo not given)  > 100 µM (inactive)
3  CCOC(=O)/C=C(/C(=O)OCC)n1cc(C)c(=O)n(Cc2cnnn2COCCOC(C)=O)c1=O   13.9 µM (inactive)

Here's the next entry for you.
Recorded GI50 for OC(c1ccco1)C(F)(F)c1nc2ccccc2o1 (stereo not given) on HT-29 was > 100 µM (inactive)

----------
Test system: SK-MEL-2
experimental-protocol: NCI tumour cell line growth inhibition, 48 h
Calls of active or inactive are those of the source. No stated cut-off is given here; in the data, active = GI50 up to about 1.1 µM and inactive = higher.
One label from this list, please: active, inactive

>>> print(df.to_string())
                            molecule  category_label
0  CSc1nc(Cl)c(Br)c(Nc2cnc(O)nc2O)n1        inactive

I would be grateful if you could indicate the recorded call for CN1C(=O)c2c(c3c4ccccc4n(C)c3c3c2c2ccccc2n3C)C1=O .
inactive

Dear all, I need the recorded test outcome for CSc1nc(Cl)c2c(n1)Sc1nc3cc4c(cc3n1C2O)OCCO4 (configuration not stated) , thank you.
active

Name the outcome recorded for COP(=O)(OC)C(O)/C=C/c1ccco1 (configuration not stated) in the assay.
inactive

Assay outcome for COc1cc(S(=O)(=O)Nc2ccc(-c3csc(N4C(=O)C(Cl)C4c4cccs4)n3)cc2)ccc1Cl (configuration not stated) : what was it?
inactive

Recorded test outcome, item CC(=N\N)/C(C)=N/N=C(C)/C(C)=N/N=C(C)/C(C)=N/N
inactive

Hi, sorry to bother you, what did the test record for Nc1nc(Cl)cc(Nc2cc(Cl)cc(Cl)c2)n1 ?
inactive
